- targetSystem: Enoyl-[acyl-carrier-protein] reductase [NADH] (Francisella tularensis subsp. novicida (strain U112), UniProt A0Q794)
- assayText: Enzyme Inhibition Assay
- assayContext: pH 8; 25 °C
Listed below: pKi values for each entry.
Just the number, please; pKi means minus log10 of the concentration in mol/L.

{"compoundStructure": "CCCCCCCCc1ccc(Oc2ccccc2)c(O)c1", "pKi": 7.63}
{"compoundStructure": "CCCc1ccc(Oc2ccccc2)c(O)c1", "pKi": 9.36}
{"compoundStructure": "Cc1ccc(Oc2ccccc2)c(O)c1", "pKi": 8.72}
{"compoundStructure": "Oc1cc(F)ccc1Oc1ccccc1", "pKi": 6.54}
{"compoundStructure": "CCCCCCc1ccc(Oc2ccccc2)c(O)c1", "pKi": 8.57}

Q: I'd like to know its pKi. The molecule in question is `Oc1cc(Cl)ccc1Oc1ccccc1`
Ans: 8.72

Q: I'd like to know its pKi. The molecule in question is `Oc1cc(Cl)ccc1Oc1ccc(Cl)cc1Cl`
Ans: 10.29

Q: I'd like to know its pKi. The molecule in question is `CCc1ccc(Oc2ccccc2)c(O)c1`
Ans: 8.68

====

Listed below: pKi values for each entry.
- targetSystem: Enoyl-[acyl-carrier-protein] reductase [NADH] (Francisella tularensis subsp. novicida (strain U112), UniProt A0Q794)
- Sequence (A0Q794 whole entry): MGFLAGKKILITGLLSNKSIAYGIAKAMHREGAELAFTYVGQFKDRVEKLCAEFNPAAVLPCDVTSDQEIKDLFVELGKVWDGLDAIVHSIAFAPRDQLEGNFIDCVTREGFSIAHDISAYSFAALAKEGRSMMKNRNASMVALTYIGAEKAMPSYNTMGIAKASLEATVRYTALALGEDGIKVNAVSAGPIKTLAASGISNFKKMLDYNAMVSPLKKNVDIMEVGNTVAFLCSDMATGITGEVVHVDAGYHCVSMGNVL
- assayText: Enzyme Inhibition Assay
- assayContext: pH 8; 25 °C
- Excerpt: Inhibition constant binding to E-NADH
Just the number, please; pKi means minus log10 of the concentration in mol/L.

// worked examples, pKi included
{"compoundStructure": "Cc1ccc(Oc2ccccc2)c(O)c1", "pKi": 6.61}
{"compoundStructure": "CCc1ccc(Oc2ccccc2)c(O)c1", "pKi": 6.51}
{"compoundStructure": "CCCCCCc1ccc(Oc2ccccc2)c(O)c1", "pKi": 6.48}
{"compoundStructure": "CCCCCCCCc1ccc(Oc2ccccc2)c(O)c1", "pKi": 6.72}
{"compoundStructure": "Oc1cc(Cl)ccc1Oc1ccccc1", "pKi": 6.51}

Q: I'd like to know its pKi. The compound in question is `CCCc1ccc(Oc2ccccc2)c(O)c1`
Ans: 6.16

Q: I'd like to know its pKi. The compound in question is `Oc1cc(Cl)ccc1Oc1ccc(Cl)cc1Cl`
Ans: 5.30

The measured values listed here are drawn from BindingDB's records for doi:10.1021/cb800306y.
